Source of measurements: ChEMBL document CHEMBL5543168

# TESTED_TARGET: Peroxiredoxin-4 (Homo sapiens)
# Sequence (Q13162 whole entry): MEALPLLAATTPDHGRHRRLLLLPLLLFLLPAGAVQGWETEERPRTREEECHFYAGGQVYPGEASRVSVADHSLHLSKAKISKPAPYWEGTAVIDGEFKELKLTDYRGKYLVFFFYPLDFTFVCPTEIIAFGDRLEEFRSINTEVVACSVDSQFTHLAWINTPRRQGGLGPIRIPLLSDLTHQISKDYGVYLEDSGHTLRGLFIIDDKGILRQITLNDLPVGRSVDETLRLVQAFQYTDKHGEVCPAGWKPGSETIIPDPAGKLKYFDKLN
# TEST: Inhibition of recombinant PRDX4 (unknown origin) using H2O2 as substrate preincubated for 0.5 hrs followed by substrate addition by TRX-TrxR-NADPH coupling assay

>  <CHEM_SMILES>
COC(=O)C1(NC(=O)N[C@]2(C)CC[C@]3(C)CC[C@]4(C)C5=CC=C6C(=CC(=O)C(O)=C6C)[C@]5(C)CC[C@@]4(C)[C@@H]3C2)CCC1

>  <TESTED_TARGET>
Peroxiredoxin-4 (Homo sapiens)

>  <IC50>
> 50 µM

$$$$
